TARGET OF ASSAY: MSI2 K22A (Homo sapiens, UniProt Q96DH6 1-328, K22A)
Sequence (Q96DH6 whole entry K22A): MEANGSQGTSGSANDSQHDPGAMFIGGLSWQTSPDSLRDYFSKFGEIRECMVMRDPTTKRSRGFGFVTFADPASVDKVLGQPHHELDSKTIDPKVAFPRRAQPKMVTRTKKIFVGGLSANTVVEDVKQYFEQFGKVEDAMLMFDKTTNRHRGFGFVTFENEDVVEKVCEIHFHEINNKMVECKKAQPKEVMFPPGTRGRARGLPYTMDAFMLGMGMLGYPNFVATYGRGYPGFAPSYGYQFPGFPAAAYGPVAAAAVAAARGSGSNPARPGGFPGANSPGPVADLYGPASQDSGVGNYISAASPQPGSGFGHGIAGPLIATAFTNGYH
PROTOCOL DETAILS: MST; MST: 50 mM HEPES, 100 mM NaCl, 0.05% Tween-20, pH 7.4, RT; EMSA: 10 mM HEPES, 20 mM KCl (+10 mM KCl), 1 mM MgCl2, 1 mM DTT, 5% glycerol, 100 ug/mL tRNA, 40 nM RNA, RT
TEST CONDITIONS: protein: recombinant; tags: GST, Flag; single strand
OBSERVED PROPERTY: Kd
Write your answer as a measured quantity: the number, then the unit.

// recorded Kd for GUAGUAGUAGUAGUA (ssRNA) [15-nt MSI RNA oligo] : 6.4 nM
